- assayed system: T1, HIV-1 YU-2 gp120 (wild-type gp120YU-2, monomeric) (HIV-1 (YU-2), UniProt P35961 32-498)
- T1 construct: domain: gp120; only gp120 stood in the assay
- experiment description: SPR competition: fixed 250 nM HIV-1 YU-2 gp120 with increasing peptide passed over immobilized sCD4; inhibition of gp120 binding to sCD4
Positions of bridges follow the written chain, without caps; N, C: chain ends. Non-standard residues stand in square brackets, D forms with d. No end group written: not given here. Pro(cis-4-Trz(4-CH2CH2Ph)) = O=C(O)[C@@H]1C[C@H](n2cc(CCc3ccccc3)nn2)CN1
endpoint label: pIC50
In simple prose, pIC50 is minus the logarithm base ten of a concentration in moles per litre.

**Q:** Need pIC50 of DNI[Pro(cis-4-Trz(4-CH2CH2Ph))]WK-NH2 (lactam 1-6, Cyclic hexapeptide triazole; also called minimized hexapeptide AAR029; macrocycle AAR029) [AAR029] , thanks.
**A:** 7.07
